These entries and their values trace back to paper PMC12030314.

# RUN_DESCRIPTION: PMB concentration in epithelial lining fluid (BAL, urea dilution method)
# Type: in vivo
# MEASUREMENT_SETUP: human, epithelial lining fluid, iv, 50 mg, treatment failure group; median [IQR]; read-out: PMB concentration in the ELF
Where a SMILES comes first, the peptide text is derived from it. Bridges are numbered along the chain shown (N, C = ends). [ ]: non-standard residue; d: D form. The star is where a group is joined. X1 = CC[C@H](C)CCCCC(=O)*; Dab = NCC[C@H](N)C(=O)O
RECORDED_METRIC: level at 96 h (ng/mL)
Field: numeric (ng/mL). Do not append units.

Query block: # get_value(readout='level at 96 h', item= CC[C@H](C)CCCCC(=O)N[C@@H](CCN)C(=O)N[C@H](C(=O)N[C@@H](CCN)C(=O)N[C@H]1CCNC(=O)[C@H]([C@@H](C)O)NC(=O)[C@H](CCN)NC(=O)[C@H](CCN)NC(=O)[C@H](CC(C)C)NC(=O)[C@@H](Cc2ccccc2)NC(=O)[C@H](CCN)NC1=O)[C@@H](C)O [PMB, polymyxin B] (X1-[Dab]T[Dab][Dab][Dab][dF]L[Dab][Dab]T; lactam 4-C) )
Result block: 980

* * *

# RUN_DESCRIPTION: PMB concentration in epithelial lining fluid (BAL, urea dilution method)
# Type: in vivo
# MEASUREMENT_SETUP: human, plasma, iv, 50 mg, patients with BAL samples; median and IQR; read-out: plasma Cmax
Where a SMILES comes first, the peptide text is derived from it. Bridges are numbered along the chain shown (N, C = ends). [ ]: non-standard residue; d: D form. The star is where a group is joined. X1 = CC[C@H](C)CCCCC(=O)*; Dab = NCC[C@H](N)C(=O)O
RECORDED_METRIC: Cmax (ng/mL)
Field: numeric (ng/mL). Do not append units.

Query block: # get_value(readout='Cmax', item= CC[C@H](C)CCCCC(=O)N[C@@H](CCN)C(=O)N[C@H](C(=O)N[C@@H](CCN)C(=O)N[C@H]1CCNC(=O)[C@H]([C@@H](C)O)NC(=O)[C@H](CCN)NC(=O)[C@H](CCN)NC(=O)[C@H](CC(C)C)NC(=O)[C@@H](Cc2ccccc2)NC(=O)[C@H](CCN)NC1=O)[C@@H](C)O [PMB, polymyxin B] (X1-[Dab]T[Dab][Dab][Dab][dF]L[Dab][Dab]T; lactam 4-C) )
Result block: 7460

* * *

# RUN_DESCRIPTION: Plasma pharmacokinetics of intravenous PMB in critically ill patients (UPLC-MS/MS; noncompartmental and two-compartment analysis)
# Assay type: in vivo, human
# MEASUREMENT_SETUP: human, plasma, iv, 50 mg, Treatment Success (n = 22); median [IQR]; read-out: Css,max
Where a SMILES comes first, the peptide text is derived from it. Bridges are numbered along the chain shown (N, C = ends). [ ]: non-standard residue; d: D form. The star is where a group is joined. X1 = CC[C@H](C)CCCCC(=O)*; Dab = NCC[C@H](N)C(=O)O
RECORDED_METRIC: Cmax (ng/mL)
Field: numeric (ng/mL). Do not append units.

Query block: # get_value(readout='Cmax', item= CC[C@H](C)CCCCC(=O)N[C@@H](CCN)C(=O)N[C@H](C(=O)N[C@@H](CCN)C(=O)N[C@H]1CCNC(=O)[C@H]([C@@H](C)O)NC(=O)[C@H](CCN)NC(=O)[C@H](CCN)NC(=O)[C@H](CC(C)C)NC(=O)[C@@H](Cc2ccccc2)NC(=O)[C@H](CCN)NC1=O)[C@@H](C)O [PMB, polymyxin B] (X1-[Dab]T[Dab][Dab][Dab][dF]L[Dab][Dab]T; lactam 4-C) )
Result block: 8700

* * *

# RUN_DESCRIPTION: PMB concentration in epithelial lining fluid (BAL, urea dilution method)
# Assay type: in vivo
# MEASUREMENT_SETUP: human, plasma, iv, 50 mg, plasma, patients with BAL samples, treatment success group; median [IQR]; read-out: Cmax
Where a SMILES comes first, the peptide text is derived from it. Bridges are numbered along the chain shown (N, C = ends). [ ]: non-standard residue; d: D form. The star is where a group is joined. X1 = CC[C@H](C)CCCCC(=O)*; Dab = NCC[C@H](N)C(=O)O
RECORDED_METRIC: Cmax (ng/mL)
Field: numeric (ng/mL). Do not append units.

Query block: # get_value(readout='Cmax', item= CC[C@H](C)CCCCC(=O)N[C@@H](CCN)C(=O)N[C@H](C(=O)N[C@@H](CCN)C(=O)N[C@H]1CCNC(=O)[C@H]([C@@H](C)O)NC(=O)[C@H](CCN)NC(=O)[C@H](CCN)NC(=O)[C@H](CC(C)C)NC(=O)[C@@H](Cc2ccccc2)NC(=O)[C@H](CCN)NC1=O)[C@@H](C)O [PMB, polymyxin B] (X1-[Dab]T[Dab][Dab][Dab][dF]L[Dab][Dab]T; lactam 4-C) )
Result block: 5940

* * *

# RUN_DESCRIPTION: PMB concentration in epithelial lining fluid (BAL, urea dilution method)
# Assay type: in vivo
# MEASUREMENT_SETUP: human, epithelial lining fluid, iv, 50 mg, treatment success group; median [IQR]; read-out: PMB concentration in the ELF
Where a SMILES comes first, the peptide text is derived from it. Bridges are numbered along the chain shown (N, C = ends). [ ]: non-standard residue; d: D form. The star is where a group is joined. X1 = CC[C@H](C)CCCCC(=O)*; Dab = NCC[C@H](N)C(=O)O
RECORDED_METRIC: level at 96 h

Query block: # get_value(readout='level at 96 h', item= CC[C@H](C)CCCCC(=O)N[C@@H](CCN)C(=O)N[C@H](C(=O)N[C@@H](CCN)C(=O)N[C@H]1CCNC(=O)[C@H]([C@@H](C)O)NC(=O)[C@H](CCN)NC(=O)[C@H](CCN)NC(=O)[C@H](CC(C)C)NC(=O)[C@@H](Cc2ccccc2)NC(=O)[C@H](CCN)NC1=O)[C@@H](C)O [PMB, polymyxin B] (X1-[Dab]T[Dab][Dab][Dab][dF]L[Dab][Dab]T; lactam 4-C) )
Result block: 840 ng/mL

* * *

# RUN_DESCRIPTION: Plasma pharmacokinetics of intravenous PMB in critically ill patients (UPLC-MS/MS; noncompartmental and two-compartment analysis)
# Assay type: in vivo, human
# MEASUREMENT_SETUP: human, plasma, iv, 50 mg, Treatment Success (n = 22); median [IQR]; read-out: AUCss,0–24h
# Description: The patients received a 100 mg loading dose followed by a maintenance dose of 50 mg every 12 h. PMB was administered by short-term infusions (60 min). Blood samples were collected from each patient in three stages. […] PMB concentrations in the samples were quantified by monitoring the total concentrations of polymyxin B1 (PB1), polymyxin B2 (PB2), polymyxin B3 (PB3), and isoleucine polymyxin B1 (I-PB1) via a validated ultraperformance liquid chromatography–tandem mass spectrometry (UPLC-MS/MS) assay. […]
Where a SMILES comes first, the peptide text is derived from it. Bridges are numbered along the chain shown (N, C = ends). [ ]: non-standard residue; d: D form. The star is where a group is joined. X1 = CC[C@H](C)CCCCC(=O)*; Dab = NCC[C@H](N)C(=O)O
RECORDED_METRIC: AUC(0-t) (µg·h/mL)
Field: numeric (µg·h/mL). Do not append units.

Query block: # get_value(readout='AUC(0-t)', item= CC[C@H](C)CCCCC(=O)N[C@@H](CCN)C(=O)N[C@H](C(=O)N[C@@H](CCN)C(=O)N[C@H]1CCNC(=O)[C@H]([C@@H](C)O)NC(=O)[C@H](CCN)NC(=O)[C@H](CCN)NC(=O)[C@H](CC(C)C)NC(=O)[C@@H](Cc2ccccc2)NC(=O)[C@H](CCN)NC1=O)[C@@H](C)O [PMB, polymyxin B] (X1-[Dab]T[Dab][Dab][Dab][dF]L[Dab][Dab]T; lactam 4-C) )
Result block: 112

* * *

# RUN_DESCRIPTION: Plasma pharmacokinetics of intravenous PMB in critically ill patients (UPLC-MS/MS; noncompartmental and two-compartment analysis)
# Format: in vivo, human
# MEASUREMENT_SETUP: human, plasma, iv, 50 mg, Treatment Failure (n = 5); median [IQR]; read-out: AUCss,0–24h
Where a SMILES comes first, the peptide text is derived from it. Bridges are numbered along the chain shown (N, C = ends). [ ]: non-standard residue; d: D form. The star is where a group is joined. X1 = CC[C@H](C)CCCCC(=O)*; Dab = NCC[C@H](N)C(=O)O
RECORDED_METRIC: AUC(0-t) (ng·h/mL)
Field: numeric (ng·h/mL). Do not append units.

Query block: # get_value(readout='AUC(0-t)', item= CC[C@H](C)CCCCC(=O)N[C@@H](CCN)C(=O)N[C@H](C(=O)N[C@@H](CCN)C(=O)N[C@H]1CCNC(=O)[C@H]([C@@H](C)O)NC(=O)[C@H](CCN)NC(=O)[C@H](CCN)NC(=O)[C@H](CC(C)C)NC(=O)[C@@H](Cc2ccccc2)NC(=O)[C@H](CCN)NC1=O)[C@@H](C)O [PMB, polymyxin B] (X1-[Dab]T[Dab][Dab][Dab][dF]L[Dab][Dab]T; lactam 4-C) )
Result block: 64700
